Target: PI3K-gamma (Homo sapiens)
Sequence (P48736 whole entry, species assumed): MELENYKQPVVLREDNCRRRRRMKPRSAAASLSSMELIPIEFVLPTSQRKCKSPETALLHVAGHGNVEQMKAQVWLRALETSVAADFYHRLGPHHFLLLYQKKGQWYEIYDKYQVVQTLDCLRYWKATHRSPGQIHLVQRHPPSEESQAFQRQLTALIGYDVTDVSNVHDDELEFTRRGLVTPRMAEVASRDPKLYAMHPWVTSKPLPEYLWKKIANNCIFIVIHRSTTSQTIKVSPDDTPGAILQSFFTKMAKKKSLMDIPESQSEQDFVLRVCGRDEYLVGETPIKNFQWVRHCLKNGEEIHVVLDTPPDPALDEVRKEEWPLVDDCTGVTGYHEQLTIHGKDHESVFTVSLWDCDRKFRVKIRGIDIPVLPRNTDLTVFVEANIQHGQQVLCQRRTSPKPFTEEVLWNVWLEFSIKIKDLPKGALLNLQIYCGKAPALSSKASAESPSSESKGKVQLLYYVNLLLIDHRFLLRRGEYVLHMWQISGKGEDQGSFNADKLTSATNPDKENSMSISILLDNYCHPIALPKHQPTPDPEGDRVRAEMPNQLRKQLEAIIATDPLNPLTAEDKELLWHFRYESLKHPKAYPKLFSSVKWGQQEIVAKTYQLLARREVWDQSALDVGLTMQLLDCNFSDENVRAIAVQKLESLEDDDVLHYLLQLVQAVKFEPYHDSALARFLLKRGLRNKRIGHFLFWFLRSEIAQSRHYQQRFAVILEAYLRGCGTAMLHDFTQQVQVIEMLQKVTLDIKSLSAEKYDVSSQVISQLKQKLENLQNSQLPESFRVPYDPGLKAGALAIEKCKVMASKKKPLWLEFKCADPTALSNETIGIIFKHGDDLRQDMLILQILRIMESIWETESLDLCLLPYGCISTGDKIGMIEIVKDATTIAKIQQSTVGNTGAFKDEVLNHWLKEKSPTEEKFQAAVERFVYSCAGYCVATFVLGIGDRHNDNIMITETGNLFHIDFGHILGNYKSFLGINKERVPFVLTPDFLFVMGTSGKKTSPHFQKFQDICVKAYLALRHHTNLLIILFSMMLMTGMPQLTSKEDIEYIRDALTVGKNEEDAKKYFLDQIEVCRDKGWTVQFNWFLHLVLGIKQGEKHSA
Experiment: PI3K-gamma fluorescence polarization assay
Assay type: biochemical
Details: PI3Kγ Avg. IC50
Protocol: PI3K-Alpha, PI3K-Beta, PI3K-Gamma, and PI3K-delta Fluorescence Polarization Assay Protocols PI3-Kinase reactions were performed in 5 mM HEPES, pH 7, 2.5 mM MgCl2, and 25 μM ATP, with diC8-PI(4,5)P2 (Echelon, Salt Lake City Utah) as substrate. Nunc 384-well black polypropylene fluorescent plates were used for PI3K assays. […] Assay Plates were read on Perkin-Elmer Envision plate readers with appropriate filters for Tamra [BODIPY-TMRI(1,3,4,5)P4]. […]
property: pIC50
Conceptually, pIC50 converts a concentration in mol/L into minus its log10.

Some solved cases for reference:
Output reported pIC50 of the compound Cn1c(-c2ccc(O)cc2)c(C=C2Oc3cc(O)cc(O)c3C2=O)c2ccccc21 on PI3K-gamma (Homo sapiens). 5.12

Output reported pIC50 of the compound COc1ccc2c(c1)c(C=C1Oc3cc(O)cc(O)c3C1=O)c(C)n2CCCCCl on PI3K-gamma (Homo sapiens). 6.85

Output reported pIC50 of the compound CNC(=O)Nc1ccc2c(c1)C(=O)/C(=C/c1c(-c3ccccc3)n(CCN3CCN(C)CC3)c3ccc(OC)cc13)O2 on PI3K-gamma (Homo sapiens). 6.69

Output reported pIC50 of the compound COc1cc(-c2cncnc2)c2c(c1)c(/C=C1\Oc3cc(O)cc(O)c3C1=O)cn2CCCC#N on PI3K-gamma (Homo sapiens). 6.09

Output reported pIC50 of the compound CCn1c(C)c(/C=C2\Oc3ccc(NC(=O)Nc4ccc(S(=O)(=O)N(C)CCN(C)C)cc4)cc3C2=O)c2cc(OC)ccc21 on PI3K-gamma (Homo sapiens). 7.17

Further cases:
Output reported pIC50 of the compound O=C1/C(=C/c2c(-c3ccc4ccccc4c3)[nH]c3ccccc23)Oc2c1ccc(O)c2O on PI3K-gamma (Homo sapiens). 6.15

Output reported pIC50 of the compound O=C1/C(=C/c2c(-c3ccc(F)cc3)[nH]c3ccccc23)Oc2c(O)cccc21 on PI3K-gamma (Homo sapiens). 6.31

###

Reported pIC50 is given for each of the following compounds.
Target: human TOR (Homo sapiens)
Construct: FLAG
Test: mTOR enzyme assay (DELFIA, His6-S6K substrate)
Assay type: biochemical
Conditions: read-out: mTOR Kinase Avg. IC50
pIC50: −log10 of the molar value.

Give the reported value of pIC50 for this record: Cn1cc(C=C2Oc3ccccc3C2=O)c2ccccc21 [Example 4] < 4.70

Give the reported value of pIC50 for this record: Cn1cc(/C=C2\Oc3cccc(O)c3C2=O)c2c(-c3ccccc3)cccc21 [Example 400] < 4.71

Give the reported value of pIC50 for this record: O=C1/C(=C/c2c(-c3ccc4ccccc4c3)[nH]c3ccccc23)Sc2ccc(Cl)cc21 [Example 285] < 4.70

Give the reported value of pIC50 for this record: Cn1cc(C=C2Oc3cc(O)cc(O)c3C2=O)c2cccc(Br)c21 [Example 249] < 4.70

Further cases:
Give the reported value of pIC50 for this record: Cc1cccc2c(/C=C3\Oc4cc(O)cc(O)c4C3=O)c[nH]c12 [Example 49] < 5.30

###

Target: PI3K-gamma (Homo sapiens)
Experiment: PI3K-gamma fluorescence polarization assay
Assay type: biochemical
Conditions: PI3Kγ Avg. IC50
property: pIC50
Conceptually, pIC50 converts a concentration in mol/L into minus its log10.

Some solved cases for reference:
Give the reported value of pIC50 for this record: CNC(=O)Nc1ccc2c(c1)C(=O)/C(=C/c1c(C(=O)N(C)CCN(C)C)[nH]c3ccc(OC)cc13)O2 6.50

Give the reported value of pIC50 for this record: COc1ccc2c(c1)c(/C=C1\Oc3cc(O)cc(O)c3C1=O)c(C(=O)N(C)C)n2CCN1CCC(O)C1 (stereo not shown) 6.84

Give the reported value of pIC50 for this record: Cc1c(C=C2Oc3cc(O)cc(O)c3C2=O)c2cc(Cl)ccc2n1CCCC#N 5.55

Give the reported value of pIC50 for this record: COc1ccc2c(c1)c(/C=C1\Oc3cc(O)cc(O)c3C1=O)c(C)n2CCN1CCC(O)CC1 7.44

Give the reported value of pIC50 for this record: COc1ccc2c(c1)c(C=C1Oc3cc(O)cc(O)c3C1=O)cn2C 6.23

Give the reported value of pIC50 for this record: COc1ccc2[nH]c(-c3c(C)nn(C)c3C)c(/C=C3\Oc4ccc(NC(=O)Nc5ccc(C(=O)N(C)CCN6CCCC6)cc5)cc4C3=O)c2c1 8.52

Give the reported value of pIC50 for this record: COc1ccc2c(c1)c(/C=C1\Oc3cc(N)ccc3C1=O)cn2CCCN(C)C 5.02

Give the reported value of pIC50 for this record: Cc1c(C=C2Oc3cc(O)cc(O)c3C2=O)c2ccccc2n1CCCCCl 5.23

Consider now this further molecule.
Give the reported value of pIC50 for this record: COc1ccc2c(c1)c(C=C1Oc3cc(O)cc(O)c3C1=O)c(C)n2CCN1CCOCC1 6.81
